Protocol notes: Dishwashing: removal of tea deposit from tea-stained cups (IKW method)
Set-up: key: visual scale 0 = unchanged, very strong deposit to 10 = no deposit
Measurement conditions: visual scale 0 (very strong deposit) to 10 (no deposit); carbonate buffer pH 9.6, 44 mM hydrogen peroxide, 20 μM catalyst, 15 minutes; reference without catalyst 4.5
Could you please classify the records by Rating using these ranges: category 1 (below 6), category 2 (6 to below 7), category 3 (7 or more)

*Q* Could you tell me which band CN(Cc1cc(N2CCCC2)ccn1)Cc1cc(O)cc(-c2cc(N3CCCC3)ccn2)n1 belongs to?
*A* category 2

*Q* Which category fits this record: CN(Cc1ccccn1)Cc1cc(O)cc(-c2cc(N3CCCC3)ccn2)n1
*A* category 2

*Q* Classify this compound: CN(Cc1ccccn1)Cc1cc(O)cc(-c2cc(N3CC[N+](C)(C)CC3)ccn2)n1.[I-]
*A* category 3

*Q* Form: Item = CN(Cc1cc(N(C)C)ccn1)Cc1cc(N(C)C)cc(-c2cc(N(C)C)ccn2)n1 [Ligand 40b-Mn] ; Class = ?
*A* category 1

====

Protocol notes: Dishwashing: removal of tea deposit from tea-stained cups (IKW method)
Parameters: key: visual scale 0 = unchanged, very strong deposit to 10 = no deposit
Measurement conditions: visual scale 0 (very strong deposit) to 10 (no deposit); carbonate buffer pH 9.6, 44 mM hydrogen peroxide, 20 μM catalyst, 15 minutes; reference without catalyst 4.5
// reported Rating per item
The answer should be a number; do not append a unit.

Compound: COc1c(C)cnc(CN(C)Cc2cc(O)cc(-c3cc(N4CCCC4)ccn3)n2)c1C
Readout kind: Rating
Recorded value: 6.9

Rating reported for this compound CN(Cc1cc(N(C)C)ccn1)Cc1cc(O)cc(-c2cc(N(C)CCO)ccn2)n1 : 7.1

Rating reported for this compound CN(Cc1ccccn1)Cc1cc(O)cc(-c2ccccn2)n1 : 6.0

The recorded Rating for entry CN(Cc1cc(N(C)C)ccn1)Cc1cc(O)cc(-c2cc(N3CCCC3)ccn2)n1 equals 6.0

For reference, reported Rating for CN1CCN(c2ccnc(-c3cc(O)cc(CN(C)Cc4ccccn4)n3)c2)CC1 stands at 6.1

Entry CN(Cc1cc(-n2cccc2)ccn1)Cc1cc(O)cc(-c2cc(N(C)C)ccn2)n1 [Ligand 40c-Mn] ; Rating = 6.8

Form field Rating, entry CN(Cc1cc(N(C)C)ccn1)Cc1cc(O)cc(-c2cc(N(C)C)ccn2)n1 [Ligand 40a-Mn] : 5.9
